Let's look at some molecules and their measured growth.
System: OVCAR-4 ovarian
test summary: NCI-60 one-dose screen, 48 h (100 = growth as untreated, 0 = no growth, -100 = all killed)
condition description: 10 µM unless noted
Compounds without any hit were thinned out: in the full panel of roughly 83,000, 20% have a hit. Activity calls are given as the source filed them. How the source made its calls: active means growth percent below 10; inactive means the rest.

Worked examples follow.
>  <molecule>
C=C1CC[C@@H]2[C@](C)(COC(C)=O)[C@H](OC(C)=O)CC[C@@]2(C)[C@@H]1CC(Nc1ccc(S(=O)(=O)Nc2nccc(C)n2)cc1)C1=CCOC1=O (stereo not given in full)

>  <growth>
32.3% (inactive)

$$$$
>  <molecule>
O=C(Nc1ccc2c(c1)-c1ccccc1C2)C1CC(=O)N(c2ccc3c(c2)OCO3)C1 (stereo not given)

>  <growth>
2.45% [50 µM] (active)

$$$$
>  <molecule>
COc1ccc2c(c1)C(c1c[nH]c3ccccc13)(c1c[nH]c3ccccc13)CCO2

>  <growth>
26% (inactive)

$$$$
>  <molecule>
NCCNc1ccc([N+](=O)[O-])cc1

>  <growth>
112% (inactive)

$$$$

Next molecule, please.
Task: State the recorded growth for this entry: "COc1cc(NC(=O)c2cncnc2Nc2ccc3c(ccn3Cc3cccc(F)c3)c2)cc(OC)c1"
Output: 95.1% (inactive)
